Measured protein stability index, listed per entry.
B1: NCK2 (parent)
chain: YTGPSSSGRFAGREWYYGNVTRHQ

Variants of: B1
ASSAY_TEXT: protein stability index of a GFP-peptide fusion (GPS, HEK-293T) (PSI 1-6); higher = more stable;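 further: lentivirally expressed fusions sorted by FACS into six bins by GFP to DsRed ratio, PSI derived from sequencing read proportions per bin multiplied by bin number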
MEASUREMENT_CONDITIONS: c terminus: a fixed tail appended
TEST_READOUT: protein stability index

{"columns": ["MUTATION_STRING", "READOUT_NUMBER"],
 "data": [
  ["G12C", 2.81],
  ["G8D", 2.65],
  ["H23E", 1.47],
  ["Y1Q", 2.96],
  ["Y16K", 2.06],
  ["G3L", 1.81],
  ["Y17H", 2.06],
  ["G3D", 2.38],
  ["S6Y", 2.13],
  ["T2Y", 2.67],
  ["S5Y", 3.23],
  ["F10S", 2.11],
  ["Y16D", 2.27],
  ["R13L", 1.7],
  ["N19A", 2.09],
  ["A11S", 2.2],
  ["E14S", 1.67],
  ["T21F", 2.53],
  ["W15I", 1.71],
  ["G18V", 2.68],
  ["V20H", 2.34],
  ["T2K", 2.27]
]}
